- Tested on: IMR-32
- MEASUREMENT PROTOCOL: Antiproliferative activity against human IMR32 cells assessed as reduction in cell viability incubated for 72 hrs by MTT assay
- Format: functional, cell-based
- COND: IMR-32, 72 h
Reported EC50 is given for each of the following compounds.
METRIC NAME: EC50 (nM)

{"COMPOUND": "CC(C)[C@@H]1NC(=O)[C@]2(C)CSC(=N2)c2csc(n2)CNC(=O)C[C@@H](/C=C/CCSC(=O)CCCCO[N+](=O)[O-])OC1=O", "TEST SYSTEM": "IMR-32", "METRIC NAME": "EC50", "QUANTITATIVE RESULT": 12}
{"COMPOUND": "CCCCCCCC(=O)SCC/C=C/[C@@H]1CC(=O)NCc2nc(cs2)C2=N[C@@](C)(CS2)C(=O)N[C@@H](C(C)C)C(=O)O1 [LARGAZOLE]", "TEST SYSTEM": "IMR-32", "METRIC NAME": "EC50", "QUANTITATIVE RESULT": 12.3}
{"COMPOUND": "CC(C)[C@@H]1NC(=O)[C@]2(C)CSC(=N2)c2csc(n2)CNC(=O)C[C@@H](/C=C/CCSC(=O)CCC(CO[N+](=O)[O-])O[N+](=O)[O-])OC1=O (stereo partly drawn)", "TEST SYSTEM": "IMR-32", "METRIC NAME": "EC50", "QUANTITATIVE RESULT": 50.1}

====

- Test system: Caco-2
- MEASUREMENT PROTOCOL: Antiproliferative activity against human Caco2 cells assessed as reduction in cell viability incubated for 48 hrs by MTT assay
- Format: functional, cell-based
- COND: Caco-2, 48 h
pEC50: −log10 of the molar value.
METRIC NAME: pEC50

{"COMPOUND": "CCCCCCCC(=O)SCC/C=C/[C@@H]1CC(=O)NCc2nc(cs2)C2=N[C@@](C)(CS2)C(=O)N[C@@H](C(C)C)C(=O)O1", "TEST SYSTEM": "Caco-2", "METRIC NAME": "pEC50", "QUANTITATIVE RESULT": 6.12}
{"COMPOUND": "CC(C)[C@@H]1NC(=O)[C@]2(C)CSC(=N2)c2csc(n2)CNC(=O)C[C@@H](/C=C/CCSC(=O)CCCCO[N+](=O)[O-])OC1=O", "TEST SYSTEM": "Caco-2", "METRIC NAME": "pEC50", "QUANTITATIVE RESULT": 7.42}
{"COMPOUND": "CC(C)[C@@H]1NC(=O)[C@]2(C)CSC(=N2)c2csc(n2)CNC(=O)C[C@@H](/C=C/CCSC(=O)CCC(CO[N+](=O)[O-])O[N+](=O)[O-])OC1=O (stereo partly drawn)", "TEST SYSTEM": "Caco-2", "METRIC NAME": "pEC50", "QUANTITATIVE RESULT": 8.25}
